System: biotinyl-Leu-oxazolone
Experiment: self-aminoacylation, catalytic enhancement (BLO) (fold over background); higher = more active; k-Seq, kA / k0A0; sequences stand for … in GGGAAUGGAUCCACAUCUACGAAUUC…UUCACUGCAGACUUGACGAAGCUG
Fewer inactive variants are shown than the library holds.
attribute measured: self-aminoacylation
Numbers only.

[
  {
    "sequence chain": "CGACUUCAAACAAUCGGUCUG [Fam1A.1 aminoacylation ribozyme variant]",
    "self-aminoacylation": 2.66
  },
  {
    "sequence chain": "AUUACACUGGUCAUGGAGUGA [Fam2.1 aminoacylation ribozyme variant]",
    "self-aminoacylation": 2.48
  },
  {
    "sequence chain": "CCACACUUCGAGCGAUCGGUC [Fam1B.1 aminoacylation ribozyme variant]",
    "self-aminoacylation": 1.86
  }
]

We now examine a further sequence.
Exam item: Consider the sequence AAGUUUGCUAAUAAUCGGAAG [Fam3.1 aminoacylation ribozyme variant] and give its measured self-aminoacylation.
Marked response: 0.877
